All values here come from patent US12624044B2.

# study-system: SMARCA2 (Homo sapiens)
# Sequence (P51531 whole entry): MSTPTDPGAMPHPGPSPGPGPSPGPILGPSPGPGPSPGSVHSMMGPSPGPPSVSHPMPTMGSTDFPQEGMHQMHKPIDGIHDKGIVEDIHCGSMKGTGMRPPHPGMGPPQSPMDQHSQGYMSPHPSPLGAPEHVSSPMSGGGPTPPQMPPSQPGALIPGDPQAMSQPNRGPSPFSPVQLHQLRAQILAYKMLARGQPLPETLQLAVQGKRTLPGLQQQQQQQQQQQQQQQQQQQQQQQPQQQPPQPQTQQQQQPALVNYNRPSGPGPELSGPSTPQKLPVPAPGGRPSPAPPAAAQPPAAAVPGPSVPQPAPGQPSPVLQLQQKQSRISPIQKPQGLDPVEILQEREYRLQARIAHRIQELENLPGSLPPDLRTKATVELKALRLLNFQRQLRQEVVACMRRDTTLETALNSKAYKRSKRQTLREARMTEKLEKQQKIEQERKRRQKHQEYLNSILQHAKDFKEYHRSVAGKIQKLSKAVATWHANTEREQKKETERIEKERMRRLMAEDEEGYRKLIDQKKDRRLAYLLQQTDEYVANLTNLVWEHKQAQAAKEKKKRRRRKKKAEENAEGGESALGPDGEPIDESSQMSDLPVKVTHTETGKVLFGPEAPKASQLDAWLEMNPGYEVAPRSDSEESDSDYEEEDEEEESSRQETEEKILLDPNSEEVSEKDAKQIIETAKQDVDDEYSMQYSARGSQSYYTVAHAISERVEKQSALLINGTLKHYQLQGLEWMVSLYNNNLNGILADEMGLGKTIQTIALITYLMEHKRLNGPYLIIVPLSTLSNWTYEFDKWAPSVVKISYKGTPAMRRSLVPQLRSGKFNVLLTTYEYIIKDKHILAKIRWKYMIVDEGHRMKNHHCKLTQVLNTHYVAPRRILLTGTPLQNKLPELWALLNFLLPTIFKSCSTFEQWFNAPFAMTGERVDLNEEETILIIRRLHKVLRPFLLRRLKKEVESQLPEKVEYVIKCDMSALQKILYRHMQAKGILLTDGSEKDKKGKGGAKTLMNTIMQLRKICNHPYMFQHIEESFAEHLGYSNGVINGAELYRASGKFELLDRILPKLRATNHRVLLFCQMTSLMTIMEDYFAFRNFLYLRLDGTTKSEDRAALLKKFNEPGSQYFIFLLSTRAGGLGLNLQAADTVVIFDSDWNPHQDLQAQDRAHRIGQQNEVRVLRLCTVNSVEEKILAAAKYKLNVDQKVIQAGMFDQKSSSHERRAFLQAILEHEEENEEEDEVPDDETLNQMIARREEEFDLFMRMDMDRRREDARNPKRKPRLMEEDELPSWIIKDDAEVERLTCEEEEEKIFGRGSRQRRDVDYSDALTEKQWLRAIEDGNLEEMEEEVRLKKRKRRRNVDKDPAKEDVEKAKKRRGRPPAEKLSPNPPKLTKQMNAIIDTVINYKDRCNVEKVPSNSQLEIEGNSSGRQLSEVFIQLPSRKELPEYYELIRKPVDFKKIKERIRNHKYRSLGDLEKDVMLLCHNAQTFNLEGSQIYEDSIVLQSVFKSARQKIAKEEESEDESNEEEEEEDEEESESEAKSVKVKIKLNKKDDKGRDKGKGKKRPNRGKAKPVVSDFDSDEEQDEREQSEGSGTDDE
# method-description: MSD SMARCA2 degradation in NCI-H1299 cell line (24 h)
# Type: cell-based
# Set-up: HC: NCI-H1299 cells treated with DMSO; host or cells: NCI-H1299
# stated-conditions: NCI-H1299 cells, read-out: SMARCA2 MSD H1299 degradation 24 h: External Abs-DC50
Exercise: for every item that follows, state its recorded DC50.

For Cn1c(=O)n(C2CCC(=O)NC2=O)c2ccc(CCCOCCOCCNC(=O)CCCCCCCCOc3ccnc(N4C[C@H]5C[C@@H]4CN5/C=C/C(=O)c4ccccc4O)c3)cc21 (some centres unmarked) [I-24] , what is its reported DC50?
> 1000 nM

Repeat for the following compound: O=C(CCCCCCCCOc1ccc(N2C[C@H]3C[C@@H]2CN3/C=C/C(=O)c2ccccc2O)nc1)NCCOCCOCCOCCOCCNc1cccc2c1C(=O)N(C1CCC(=O)NC1=O)C2=O (some centres unmarked) [I-2]
> 1000 nM

Repeat for the following compound: Cn1c(=O)n(C2CCC(=O)NC2=O)c2ccc(CC(=O)N3CCN(Cc4cnc(N5C6CCC5CN(c5cc(-c7ccccc7O)nnc5N)C6)nc4)CC3)cc21 (centres unmarked) [I-294]
< 100 nM

Repeat for the following compound: Cn1c(=O)n(C2CCC(=O)NC2=O)c2ccc(CN3CC4(CCN(Cc5cnc(N6C7CCC6CN(c6cc(-c8ccccc8O)nnc6N)C7)nc5)CC4)C3)cc21 (centres unmarked) [I-166]
< 100 nM

Repeat for the following compound: Cc1ncsc1-c1ccc(CNC(=O)[C@@H]2C[C@@H](O)CN2C(=O)[C@@H](NC(=O)[C@H]2CC[C@@H](CN3CCC(n4cc(-c5cc(-c6ccccc6O)nnc5N)cn4)CC3)CC2)C(C)(C)C)cc1 [I-402]
100 to 500 nM

Repeat for the following compound: Cn1c(=O)n(C2CCC(=O)NC2=O)c2ccc(C#CCCCCCc3cn(Cc4cccc(N5C[C@H]6C[C@@H]5CN6/C=C/C(=O)c5ccccc5O)n4)nn3)cc21 (some centres unmarked) [I-62]
> 1000 nM

Repeat for the following compound: Cc1ncsc1-c1ccc(CNC(=O)[C@@H]2C[C@@H](O)CN2C(=O)[C@@H](NC(=O)CCCCN2CCN(Cc3ccc(-c4cc(-c5ccccc5O)nnc4N)cc3)CC2)C(C)(C)C)cc1 [I-476]
100 to 500 nM

Repeat for the following compound: Cn1c(=O)n(C2CCC(=O)NC2=O)c2ccc(CCCCCN3CCC[C@@H](Cn4cc(-c5cc(-c6ccccc6O)nnc5N)cn4)C3)cc21 (some centres unmarked) [I-193]
501 to 1000 nM

Repeat for the following compound: Cc1ncsc1-c1ccc(CNC(=O)[C@@H]2C[C@@H](O)CN2C(=O)[C@@H](NC(=O)CN2CCC(n3cc(-c4cc(-c5ccccc5O)nnc4N)cn3)CC2)C(C)(C)C)cc1 [I-457]
501 to 1000 nM

Repeat for the following compound: Nc1nnc(-c2ccccc2O)cc1N1CCN(c2ccc(CNCCCOCCCc3ccc4c(c3)oc(=O)n4C3CCC(=O)NC3=O)cc2)CC1 (centres unmarked) [I-127]
> 1000 nM

Repeat for the following compound: Cn1c(=O)n(C2CCC(=O)NC2=O)c2ccc(CCCCCCCN3CCC(Cn4cc(-c5cc(-c6ccccc6O)nnc5N)cn4)CC3)cc21 (centres unmarked) [I-146]
< 100 nM
